Experiment: PK of compound of Formula (Ia) after single subcutaneous dose of solution formulations in beagle dogs
Format: in vivo
Conditions: male, beagle, dog, plasma, sc, 12 mg/kg, beagle dogs, SC 12 mg/kg, 400 mg/mL solution W (5.00% ethanol, 1.57% poloxamer 188), 2688 h, Mean n = 3
ENDPOINT_NAME: concentration at 2688 h (nM)
Numbers only, in nM.

In plain terms, CC(C)(C#Cc1ccc(-c2ccc(Cl)c3c(NS(C)(=O)=O)nn(CC(F)(F)F)c23)c([C@H](Cc2cc(F)cc(F)c2)NC(=O)Cn2nc(C(F)(F)F)c3c2C(F)(F)[C@@H]2C[C@H]32)n1)S(C)(=O)=O has a documented concentration at 2688 h of 13.3

* * *

Experiment: PK of compound of Formula (Ia) after single subcutaneous dose of solution formulations in Wistar Han rats
Assay type: in vivo
Settings: male, Wistar Han, rat, plasma, sc, 50 mg/kg, 1008 h; mean, n = 3 rats; SC 50 mg/kg; solution V, 300 mg/mL
ENDPOINT_NAME: concentration at 1008 h (nM)
Numbers only, in nM.

Data point: CC(C)(C#Cc1ccc(-c2ccc(Cl)c3c(NS(C)(=O)=O)nn(CC(F)(F)F)c23)c([C@H](Cc2cc(F)cc(F)c2)NC(=O)Cn2nc(C(F)(F)F)c3c2C(F)(F)[C@@H]2C[C@H]32)n1)S(C)(=O)=O [compound of Formula (Ia)] ; concentration at 1008 h = 258

* * *

Experiment: PK of compound of Formula (Ia) after single subcutaneous dose of solution formulations in beagle dogs
Format: in vivo
Settings: male, beagle, dog, plasma, sc, 12 mg/kg, beagle dogs, SC 12 mg/kg, 400 mg/mL solution AA (6.25% poloxamer 188), 3696 h, animals #1-#3
ENDPOINT_NAME: concentration at 3696 h (nM)
One number for each entry, in nM.

get_value(item= CC(C)(C#Cc1ccc(-c2ccc(Cl)c3c(NS(C)(=O)=O)nn(CC(F)(F)F)c23)c([C@H](Cc2cc(F)cc(F)c2)NC(=O)Cn2nc(C(F)(F)F)c3c2C(F)(F)[C@@H]2C[C@H]32)n1)S(C)(=O)=O [compound of Formula (Ia)] , readout=concentration at 3696 h) returns 1.63

* * *

Test: PK of compound of Formula (Ia) after single subcutaneous dose of solution formulations in Wistar Han rats
Format: in vivo
Details: male, Wistar Han, rat, plasma, sc, 50 mg/kg, mean ± SD, n = 5 rats; SC 50 mg/kg; solution U, 500 mg/mL; read-out: AUC0-1680 h
Procedure: Formulations containing the compound of Formula (Ia), or a pharmaceutically acceptable salt thereof, were prepared as solutions and optionally administered subcutaneously or intramuscularly to rats, rabbits, and/or dogs. A solution of about 400 mg/mL of the compound of Formula (Ia) having 19.14 w/w % water, 40.66 w/w % PEG 300, 35.20 w/w % of a sodium salt of a compound of Formula (Ia), and 5.00% ethanol was prepared. […]
ENDPOINT_NAME: AUC(0-t) (µM·h)
Give bare numbers, in µM·h.

AUC(0-t) measured on CC(C)(C#Cc1ccc(-c2ccc(Cl)c3c(NS(C)(=O)=O)nn(CC(F)(F)F)c23)c([C@H](Cc2cc(F)cc(F)c2)NC(=O)Cn2nc(C(F)(F)F)c3c2C(F)(F)[C@@H]2C[C@H]32)n1)S(C)(=O)=O = 529

* * *

Assay: PK of compound of Formula (Ia) after single subcutaneous dose of solution formulations in Wistar Han rats
Assay type: in vivo
Conditions: male, Wistar Han, rat, plasma, sc, 50 mg/kg, 3024 h; mean (rat #1 NS); SC 50 mg/kg; solution T, 400 mg/mL
ENDPOINT_NAME: concentration at 3024 h (nM)
One number for each entry, in nM.

Form field concentration at 3024 h, entry CC(C)(C#Cc1ccc(-c2ccc(Cl)c3c(NS(C)(=O)=O)nn(CC(F)(F)F)c23)c([C@H](Cc2cc(F)cc(F)c2)NC(=O)Cn2nc(C(F)(F)F)c3c2C(F)(F)[C@@H]2C[C@H]32)n1)S(C)(=O)=O [compound of Formula (Ia)] : 131

* * *

Experiment: PK of compound of Formula (Ia) after single subcutaneous dose of solution formulations in Wistar Han rats
Format: in vivo
Conditions: male, Wistar Han, rat, plasma, sc, 50 mg/kg, Wistar Han rats, SC 50 mg/kg, 400 mg/mL solution W (5.00% ethanol, 1.57% poloxamer 188), 3.00 h, Mean n = 3
ENDPOINT_NAME: concentration at 3 h (nM)
One number for each entry, in nM.

The reported value for CC(C)(C#Cc1ccc(-c2ccc(Cl)c3c(NS(C)(=O)=O)nn(CC(F)(F)F)c23)c([C@H](Cc2cc(F)cc(F)c2)NC(=O)Cn2nc(C(F)(F)F)c3c2C(F)(F)[C@@H]2C[C@H]32)n1)S(C)(=O)=O in terms of concentration at 3 h is 53.4

* * *

Experiment: PK of compound of Formula (Ia) after single intramuscular dose of solution formulations in Wistar Han rats
Format: in vivo
Details: male, Wistar Han, rat, plasma, intramuscular, 100 mg/kg, Solution K (~500 mg/mL, ethanol); IM 100 mg/kg; Wistar Han rats; mean, n = 4; 8.00 h; read-out: Plasma concentration, Mean
ENDPOINT_NAME: concentration at 8 h
Answer with the number, then the unit.

The reported concentration at 8 h of the compound CC(C)(C#Cc1ccc(-c2ccc(Cl)c3c(NS(C)(=O)=O)nn(CC(F)(F)F)c23)c([C@H](Cc2cc(F)cc(F)c2)NC(=O)Cn2nc(C(F)(F)F)c3c2C(F)(F)[C@@H]2C[C@H]32)n1)S(C)(=O)=O [compound of Formula (Ia)] was 218 nM

* * *

Experiment: PK of compound of Formula (Ia) after single subcutaneous dose of solution formulations in Wistar Han rats
Type: in vivo
Settings: male, Wistar Han, rat, plasma, sc, 50 mg/kg, male Wistar Han rats, single SC 50 mg/kg, 400 mg/mL solution Y (water, PEG 300), mean ± SD, n = 4; read-out: AUC0-3696 h
ENDPOINT_NAME: AUC(0-t) (µM·h)
Give bare numbers, in µM·h.

Given item CC(C)(C#Cc1ccc(-c2ccc(Cl)c3c(NS(C)(=O)=O)nn(CC(F)(F)F)c23)c([C@H](Cc2cc(F)cc(F)c2)NC(=O)Cn2nc(C(F)(F)F)c3c2C(F)(F)[C@@H]2C[C@H]32)n1)S(C)(=O)=O , the value recorded as its AUC(0-t) is 454

* * *

Assay: PK of compound of Formula (Ia) after single subcutaneous dose of solution formulations in Wistar Han rats
Format: in vivo
Conditions: male, Wistar Han, rat, plasma, sc, 50 mg/kg, mean ± SD, n = 3 rats; SC 50 mg/kg; solution S, 500 mg/mL; read-out: AUC0-3024 h
ENDPOINT_NAME: AUC(0-t) (µM·h)
Answers are plain numbers, in µM·h.

Please fill in: AUC(0-t) reported for CC(C)(C#Cc1ccc(-c2ccc(Cl)c3c(NS(C)(=O)=O)nn(CC(F)(F)F)c23)c([C@H](Cc2cc(F)cc(F)c2)NC(=O)Cn2nc(C(F)(F)F)c3c2C(F)(F)[C@@H]2C[C@H]32)n1)S(C)(=O)=O [compound of Formula (Ia)] = 652

* * *

Assay: PK of compound of Formula (Ia) after single subcutaneous dose of solution formulations in Wistar Han rats
Type: in vivo
Conditions: male, Wistar Han, rat, plasma, sc, 50 mg/kg, 3696 h; mean, n = 3 rats; SC 50 mg/kg; solution R, 400 mg/mL
ENDPOINT_NAME: concentration at 3696 h (nM)
Give bare numbers, in nM.

Recorded concentration at 3696 h (molecule CC(C)(C#Cc1ccc(-c2ccc(Cl)c3c(NS(C)(=O)=O)nn(CC(F)(F)F)c23)c([C@H](Cc2cc(F)cc(F)c2)NC(=O)Cn2nc(C(F)(F)F)c3c2C(F)(F)[C@@H]2C[C@H]32)n1)S(C)(=O)=O ): 94.8

* * *

Experiment: PK of compound of Formula (Ia) after single subcutaneous dose of solution formulations in beagle dogs
Assay type: in vivo
Details: male, beagle, dog, plasma, sc, 12 mg/kg, beagle dogs, SC 12 mg/kg, 400 mg/mL solution Y (water, PEG 300), 504 h, animals #1-#3
ENDPOINT_NAME: concentration at 504 h (nM)
Answers are plain numbers, in nM.

Recorded result, CC(C)(C#Cc1ccc(-c2ccc(Cl)c3c(NS(C)(=O)=O)nn(CC(F)(F)F)c23)c([C@H](Cc2cc(F)cc(F)c2)NC(=O)Cn2nc(C(F)(F)F)c3c2C(F)(F)[C@@H]2C[C@H]32)n1)S(C)(=O)=O [compound of Formula (Ia)] , concentration at 504 h: 247
